- Test target: Platelet-derived growth factor receptor alpha (Homo sapiens);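 also: values are mean percent inhibition of PDGFRA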
- Details: at 1 µM
Label scheme, based on inhibition: LOW (below 10%), MID (10% to below 60%), HIGH (60% or more)

COc1ccc(-c2nn3ncccc3c2-c2ccnc(Nc3cccc(C(F)(F)F)c3)n2)cc1
LOW

Exam item: Which category fits this record: `Nc1nccc(-c2c(-c3ccc(F)cc3)ncn2CCCN2CCOCC2)n1`
Marked response: MID

Exam item: Which category fits this record: `C[C@@H](Oc1cc(-n2cnc3ccc(OC[C@@H](O)CO)cc32)sc1C(N)=O)c1ccccc1Cl`
Marked response: HIGH

Exam item: Which category fits this record: `CS(=O)(=O)Nc1cccc(-c2ccc3c(NC(=O)C4CC4)n[nH]c3c2)c1`
Marked response: MID

Exam item: Which category fits this record: `COC(=O)c1ccc2c(c1)C(=Cc1cc(Br)c(O)c(Br)c1)C(=O)N2`
Marked response: MID

Exam item: Which category fits this record: `COC(=O)c1cncc(/C=C/c2c(C)cc(O)cc2C)c1`
Marked response: MID

Exam item: Which category fits this record: `Cc1ccc(O)cc1Nc1ccnc2ccc(S(C)(=O)=O)cc12`
Marked response: HIGH

Exam item: Which category fits this record: `CCS(=O)(=O)c1ccc(OC)c(Nc2nccc(N(C)c3ccc4c(C)n[nH]c4c3)n2)c1`
Marked response: HIGH

All values here come from ChEMBL document CHEMBL1961873.
